Measured values drawn from patent US20260242478A1 for this set.

In this section, each of the binders is paired with its reported Anti-CD28 Fab signal in the presence of CD28 (phage binding ELISA).
# experimentalSystem: T1, Anti-CD28 Fab (SEQ ID NOs: 696, 697)
# T1 construct: In the phage ELISA the Fab was biotinylated and captured on neutravidin coated plates
# T1 sequence (VH, as listed by the source, chain 1 of 2): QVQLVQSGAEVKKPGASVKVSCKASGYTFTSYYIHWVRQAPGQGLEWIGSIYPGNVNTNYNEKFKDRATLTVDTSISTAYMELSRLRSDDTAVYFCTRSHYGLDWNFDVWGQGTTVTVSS
# T1 sequence (VL, as listed by the source, chain 2 of 2): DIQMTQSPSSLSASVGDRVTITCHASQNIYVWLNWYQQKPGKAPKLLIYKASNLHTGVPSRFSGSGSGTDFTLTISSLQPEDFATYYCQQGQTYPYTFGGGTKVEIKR
# testName: phage binding ELISA on captured anti-CD28 Fab, wells pre-incubated with CD28 antigen as competitor
parameterMeasured: Anti-CD28 Fab signal in the presence of CD28 (phage binding ELISA)

binder	number
PCAAGAMWPWPVCL (Tested as clonal phage supernatant; not shown: fused to the pIII filament of the bacteriophage) [Phage-1433 (peptide-92 library clone, SEQ ID NO: 1729)]	0.06
TCSAGAGYPWPLCY (Tested as clonal phage supernatant; not shown: fused to the pIII filament of the bacteriophage) [Phage-1438 (peptide-92 library clone, SEQ ID NO: 1734)]	0.08
SCSAGASLQLSICL (Tested as clonal phage supernatant; not shown: fused to the pIII filament of the bacteriophage) [Phage-1439 (peptide-92 library clone, SEQ ID NO: 1735)]	0.06
TCAAGAYWTWPACF (Tested as clonal phage supernatant; not shown: fused to the pIII filament of the bacteriophage) [Phage-1437 (peptide-92 library clone, SEQ ID NO: 1733)]	0.09
TCSAGATWAWPSCF (Tested as clonal phage supernatant; not shown: fused to the pIII filament of the bacteriophage) [Phage-1440 (peptide-92 library clone, SEQ ID NO: 1736)]	0.1
LCNAGAMYKWPTCL (Tested as clonal phage supernatant; not shown: fused to the pIII filament of the bacteriophage) [Phage-1434 (peptide-92 library clone, SEQ ID NO: 1730)]	0.06
TCSAGAHYVWPMCF (Tested as clonal phage supernatant; not shown: fused to the pIII filament of the bacteriophage) [Phage-1441 (peptide-92 library clone, SEQ ID NO: 1737)]	0.17
TCSAGATWPWPICL (Tested as clonal phage supernatant; not shown: fused to the pIII filament of the bacteriophage) [Phage-1444 (peptide-92 library clone, SEQ ID NO: 1740)]	0.08
